procedure-summary: PK studies in animals of the free base crystal forms
Format: in vivo
assay-context: Sprague-Dawley (SD), rat, 5 mg/kg; PO, 5MPK, 0.5%CMC-Na, SD rats, plasma; read-out: tmax
measured-property: Tmax (min)
Write the answer as a number in min, unit excluded.

Query: // fetch Tmax given entry CC(C)(O)c1nc(N2C[C@H]3CN(C(=O)c4c(F)cccc4-c4ncccn4)C[C@H]3C2)ncc1F [free base crystal form I]
Result: 30

---

procedure-summary: Solubility experiments in different media (thermodynamic solubility)
Assay type: physicochemical
assay-context: USP buffer pH 6.8, 37 °C, pH 6.8, aqueous buffer, thermodynamic from solid, pH 6.8, read-out: Solubility of free base crystal form II
measured-property: solubility at 2 h (µg/mL)
Write the answer as a number in µg/mL, unit excluded.

Query: // fetch solubility at 2 h given entry CC(C)(O)c1nc(N2C[C@H]3CN(C(=O)c4c(F)cccc4-c4ncccn4)C[C@H]3C2)ncc1F [free base crystal form II]
Result: 49
